Hey, just so you know, these numbers are from patent US20240344241A1.

# system under test: T1, human β-factor XIIa (human), P00748
# T1 chain 1: NGPLSCGQR
# T1 chain 2: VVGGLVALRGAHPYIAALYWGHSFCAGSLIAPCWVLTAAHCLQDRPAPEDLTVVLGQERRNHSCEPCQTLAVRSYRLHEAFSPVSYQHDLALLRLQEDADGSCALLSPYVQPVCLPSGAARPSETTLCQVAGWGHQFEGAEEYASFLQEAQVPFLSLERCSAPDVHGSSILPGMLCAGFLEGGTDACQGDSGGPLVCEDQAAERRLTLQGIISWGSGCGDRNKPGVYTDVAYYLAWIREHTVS
# assay explanation: competitive protease inhibition assay, 0.5 nM FXIIa, Boc-QGR-MCA substrate
Ends that are not written are not given here.
pKi for assorted binders
pKi is a log-scale quantity: -log10 of the concentration expressed in molar.

GGICPRIGRLCTRDSDCPGACICRATRFCGSGSD (not fully specified (bridges); cysteine pairing not given here) [Cyclic [R12T]MCoFx7] :: 10.19

Output pKi of GGICPRIGRLCRRDSDCPGACICRATHFCGSGSD (not fully specified (bridges); cysteine pairing not given here) [Cyclic [R27H]MCoFx7]
9.92
